assay: Crystal violet cytotoxicity assay; format: cell-based; details: mouse, Hepa1c1c7 murine hepatoma cells
IC50 at 48 h: recorded values

{"columns": ["Compound", "Inequality sign", "IC50 at 48 h (µM)"],
 "data": [
  ["CCC/C=C1\\OC(=O)c2ccccc21 [Compound 2, Z-butylidenephthalide]", ">", 20],
  ["CCC/C=C1\\OC(=O)C2=C1CCC=C2 [Compound 1, Z-ligustilide]", "=", 71.2]
]}

----------
test system: NAD(P)H:quinone oxidoreductase 1 (NQO1); assay: In vitro NQO1 induction assay in Hepa-1c1c7 cells; settings: pure compounds; Hepa1c1c7 cells, 48 h
# Lookup of reported NQO1 assay CD ± SD (concentration required for two-fold induction of NQO1) keyed by entry
Reported metric: NQO1 assay CD ± SD (concentration required for two-fold induction of NQO1) (µM)

{"columns": ["Molecule", "Value units", "Inequality sign", "Endpoint result"],
 "data": [
  ["CCC/C=C1\\OC(=O)c2ccccc21 [Compound 2, Z-butylidenephthalide]", "µM", ">", 20],
  ["COc1cc(/C=C/C(=O)OCC(O)C(OC)c2ccc(O)c(OC)c2)ccc1O (stereo not drawn) [Compound 6, angeliferulate]", "µM", "=", 7.5],
  ["CCC/C=C1\\OC(=O)C2=CC3CCC21[C@]1(OC(=O)c2ccccc21)[C@@H]3CCC (stereo partly drawn) [Compound 4, ansaspirolide]", "µM", "=", 0.9],
  ["CCC/C=C1\\OC(=O)C23C=CCCC12C1(OC(=O)c2ccccc21)C3CCC (stereo not drawn) [Compound 5, sinaspirolide]", "µM", ">", 20],
  ["CCC/C=C1\\OC(=O)C2=C1CC[C@@H](O)[C@@H]2O [Compound 3, senkyunolide I]", "µM", "=", 17.9]
]}
